- System: Y79
- procedure_text: Growth inhibition of human Y79 cells assessed as reduction in cell number after 48 hrs by alamarBlue based fluorescence assay
- Assay type: functional
- assay_conditions: Y79, 48 h
Could you please report measured GI50 for the items listed next?
Give bare numbers, in µM.

Consider the worked cases shown below.
[
  {
    "compound": "COC(=O)c1cc(/C=C2\\COc3cc(OC)c(OC)c(OC)c3C2=O)ccc1OC",
    "tested_target": "Y79",
    "measurement_name": "GI50",
    "unit_of_measurement": "µM",
    "assay_result": 6.1
  },
  {
    "compound": "COc1ccc(CC2COc3cc(O)c(OC)c(O)c3C2=O)cc1O (centres undefined)",
    "tested_target": "Y79",
    "measurement_name": "GI50",
    "unit_of_measurement": "µM",
    "assay_result": 9.8
  }
]

Please look at the following compound next.
Prompt: Lab note: need GI50 with Y79 for entry COc1cc2c(c(OC)c1OC)C(=O)/C(=C/c1ccc(O)c(O)c1)CO2 , please look it up.
Response: 4
